- System: Klebsiella pneumoniae ATCC BAA-1705 (KPC)
- Assay type: cell-based
- condition: Klebsiella pneumoniae ATCC BAA-1705 (KPC)
Bridge positions count the residues as written; N and C are the ends. Square brackets hold non-standard residues; d marks the D form. Peptide text beside a SMILES is read from it. * marks the point of attachment. X1 = CC[C@H](C)CCCCC(=O)*; Octanoyl = CCCCCCCC(=O)*; dDap = NC[C@@H](N)C(=O)O; Dab = NCC[C@H](N)C(=O)O; Dap = NC[C@H](N)C(=O)O
experimentalEndpoint: MIC (µg/mL)
// units = µg/mL; emit number, no label

# example entries with known answers
compound	uom	MIC
CCCCCCCC(=O)N[C@@H](CCN)C(=O)N[C@H](C(=O)N[C@@H](CN)C(=O)N[C@H]1CCNC(=O)[C@H]([C@@H](C)O)NC(=O)[C@H](CCN)NC(=O)[C@H](CCN)NC(=O)[C@H](CC(C)C)NC(=O)[C@@H](Cc2ccccc2)NC(=O)[C@H](CCN)NC1=O)[C@@H](C)O [Compound 38] (Octanoyl-[Dab]T[Dap][Dab][Dab][dF]L[Dab][Dab]T; lactam 4-C)	µg/mL	0.03
CCCCCCCC(=O)N[C@@H](CCN)C(=O)N[C@H](C(=O)N[C@H](CN)C(=O)N[C@H]1CCNC(=O)[C@H]([C@@H](C)O)NC(=O)[C@H](CCN)NC(=O)[C@H](CCN)NC(=O)[C@H](CC(C)C)NC(=O)[C@@H](Cc2ccccc2)NC(=O)[C@H](CCN)NC1=O)[C@@H](C)O [Compound 33] (Octanoyl-[Dab]T[dDap][Dab][Dab][dF]L[Dab][Dab]T; lactam 4-C)	µg/mL	0.03

Then there is this compound:
stdin: Item under review: CC[C@H](C)CCCCC(=O)N[C@@H](CCN)C(=O)N[C@H](C(=O)N[C@H](CO)C(=O)N[C@H]1CCNC(=O)[C@H]([C@@H](C)O)NC(=O)[C@H](CCN)NC(=O)[C@H](CCN)NC(=O)[C@H]([C@@H](C)O)NC(=O)[C@@H](Cc2ccccc2)NC(=O)[C@H](CN)NC1=O)[C@@H](C)O [Compound 61] (X1-[Dab]T[dS][Dab][Dap][dF]T[Dab][Dab]T; lactam 4-C) . Reported MIC?
stdout: 0.25

---

- Test system: Acinetobacter baumannii ABA19-1
- Format: cell-based
- condition: ABA19-1
Numbered stars: 1 amine (or outer) side, 2 acyl side, 3 side chain; on linkers, the order of the positions; unused ones are H or OH. Bridge positions count the residues as written; N and C are the ends. Square brackets hold non-standard residues; d marks the D form. Peptide text beside a SMILES is read from it. * marks the point of attachment. X3 = O=C([C@@H](Cc1ccc(CS(=O)(=O)O)cc1)N[*:1])[*:2]; Heptanoyl(6-Me) = CC(C)CCCCC(=O)*; Sulfomethyl = O=S(=O)(O)C*; Nonanoyl = CCCCCCCCC(=O)*; X1 = CC[C@H](C)CCCCC(=O)*; Heptanoyl = CCCCCCC(=O)*; Orn = NCCC[C@H](N)C(=O)O; dDap = NC[C@@H](N)C(=O)O; Dab = NCC[C@H](N)C(=O)O; Dap = NC[C@H](N)C(=O)O
# MIC values compiled below
// units = µg/mL; emit number, no label

# example entries with known answers
molecule	MIC / µg/mL
CCCCCCC(=O)N[C@@H](CCN)C(=O)N[C@H](C(=O)N[C@H](CN)C(=O)N[C@H]1CCNC(=O)[C@H]([C@@H](C)O)NC(=O)[C@H](CCN)NC(=O)[C@H](CCN)NC(=O)[C@H](CC(C)C)NC(=O)[C@@H](Cc2ccccc2)NC(=O)[C@H](CCN)NC1=O)[C@@H](C)O [Compound 34] (Heptanoyl-[Dab]T[dDap][Dab][Dab][dF]L[Dab][Dab]T; lactam 4-C)	0.06
CC[C@H](C)CCCCC(=O)N[C@@H](CCN)C(=O)N[C@H](C(=O)N[C@H](CO)C(=O)N[C@H]1CCNC(=O)[C@H]([C@@H](C)O)NC(=O)[C@H](CCCN)NC(=O)[C@H](CCN)NC(=O)[C@H]([C@@H](C)O)NC(=O)[C@@H](Cc2ccccc2)NC(=O)[C@H](CCN)NC1=O)[C@@H](C)O [Compound 86] (X1-[Dab]T[dS][Dab][Dab][dF]T[Dab][Orn]T; lactam 4-C)	0.06

stdin: Item under review: CCCCCCCCC(=O)N[C@@H](CCN)C(=O)N[C@H](C(=O)N[C@H](CO)C(=O)N[C@H]1CCNC(=O)[C@H]([C@@H](C)O)NC(=O)[C@H](CCN)NC(=O)[C@H](CCN)NC(=O)[C@H]([C@@H](C)O)NC(=O)[C@@H](Cc2ccccc2)NC(=O)[C@H](CCCN)NC1=O)[C@@H](C)O [Compound 70] (Nonanoyl-[Dab]T[dS][Dab][Orn][dF]T[Dab][Dab]T; lactam 4-C) . Reported MIC?
stdout: 0.25

stdin: Item under review: CC(C)CCCCC(=O)N[C@@H](CCN)C(=O)N[C@H](C(=O)N[C@H](CO)C(=O)N[C@H]1CCNC(=O)[C@H]([C@@H](C)O)NC(=O)[C@H](CCN)NC(=O)[C@H](CCN)NC(=O)[C@H]([C@@H](C)O)NC(=O)[C@@H](Cc2ccc(CS(=O)(=O)O)cc2)NC(=O)[C@H](CCN)NC1=O)[C@@H](C)O [Compound 107] ({Heptanoyl(6-Me)}-[Dab]T[dS][Dab][Dab][X3]T[Dab][Dab]T; lactam 4-C) . Reported MIC?
stdout: 0.06

stdin: Item under review: CC(C)CCCCC(=O)N[C@@H](CCN)C(=O)N[C@H](C(=O)N[C@@H](CN)C(=O)N[C@H]1CCNC(=O)[C@H]([C@@H](C)O)NC(=O)[C@H](CCN)NC(=O)[C@H](CCN)NC(=O)[C@H]([C@@H](C)OCS(=O)(=O)O)NC(=O)[C@@H](Cc2ccccc2)NC(=O)[C@H](CCN)NC1=O)[C@@H](C)O [Compound 114] ({Heptanoyl(6-Me)}-[Dab]T[Dap][Dab][Dab][dF]T(Sulfomethyl)[Dab][Dab]T; lactam 4-C) . Reported MIC?
stdout: 0.06

---

- measurementProtocol: Nephrotoxicity assay: in vitro cytotoxicity of HK-2 cells by CCK-8 assay
- Type: cell-based
- condition: human, HK-2 cells (human renal), 72 h incubation with drug-containing medium
- Protocol: In vitro cytotoxicity detection of HK-2 cells was performed by the CCK-8 assay. The culture medium for human renal HK-2 cells was a complete RPMI-1640 medium (Invitrogen) supplemented with 10% fetal bovine serum (FBS, Gibco). […] After incubation in the incubator for 3 h, the optical density (OD) values at 450 nm were measured using a BIOTEK microplate reader. […] The half-maximal inhibitory concentration (IC50) values were calculated through logarithmic regression analysis. […]
Bridge positions count the residues as written; N and C are the ends. Square brackets hold non-standard residues; d marks the D form. Peptide text beside a SMILES is read from it. * marks the point of attachment. Heptanoyl(6-Me) = CC(C)CCCCC(=O)*; dOrn = NCCC[C@@H](N)C(=O)O; Heptanoyl = CCCCCCC(=O)*; Dab = NCC[C@H](N)C(=O)O; Dap = NC[C@H](N)C(=O)O
experimentalEndpoint: IC50 at 72 h

stdin: Item under review: CCCCCCC(=O)N[C@@H](CCN)C(=O)N[C@H](C(=O)N[C@H](CO)C(=O)N[C@H]1CCNC(=O)[C@H]([C@@H](C)O)NC(=O)[C@H](CCN)NC(=O)[C@H](CCN)NC(=O)[C@H]([C@@H](C)O)NC(=O)[C@@H](Cc2ccccc2)NC(=O)[C@H](CN)NC1=O)[C@@H](C)O [Compound 64] (Heptanoyl-[Dab]T[dS][Dab][Dap][dF]T[Dab][Dab]T; lactam 4-C) . Reported IC50 at 72 h?
stdout: > 500 µg/mL

stdin: Item under review: CC(C)CCCCC(=O)N[C@@H](CCN)C(=O)N[C@H](C(=O)N[C@@H](CN)C(=O)N[C@H]1CCNC(=O)[C@H]([C@@H](C)O)NC(=O)[C@H](CCN)NC(=O)[C@H](CCN)NC(=O)[C@H](CC(C)C)NC(=O)[C@@H](Cc2ccccc2)NC(=O)[C@H](CCN)NC1=O)[C@@H](C)O [Compound 37] ({Heptanoyl(6-Me)}-[Dab]T[Dap][Dab][Dab][dF]L[Dab][Dab]T; lactam 4-C) . Reported IC50 at 72 h?
stdout: 318 µg/mL

stdin: Item under review: CCCCCCC(=O)N[C@@H](CCN)C(=O)N[C@H](C(=O)N[C@H](CCCN)C(=O)N[C@H]1CCNC(=O)[C@H]([C@@H](C)O)NC(=O)[C@H](CCN)NC(=O)[C@H](CCN)NC(=O)[C@H](CC(C)C)NC(=O)[C@@H](Cc2ccccc2)NC(=O)[C@H](CCN)NC1=O)[C@@H](C)O [Compound 44] (Heptanoyl-[Dab]T[dOrn][Dab][Dab][dF]L[Dab][Dab]T; lactam 4-C) . Reported IC50 at 72 h?
stdout: 308 µg/mL

The measurements presented in this section are drawn from patent EP4725957A1.
